# targetUnderTest: equine FcRn (large alpha subunit p51) / equine beta-2-microglobulin complex, biotinylated (equine) (UniProt P30441)
# methodSummary: SPR (Biacore), pH 6
quantityName: pKd
pKd here is simply -log10 of the concentration when that concentration is written in mol/L.

Req: Item equine IgG4 M428N (antibody, part only; not given: variable domains, not shown: another chain or arm of the molecule) constant: ASTTAPKVFPLASHSAATSGSTVALGCLVSSYFPEPVTVSWNSGALTSGVHTFPSVLQSSGLYSLSSMVTVPASSLKSQTYICNVAHPASSTKVDKKIVIKECNGGCPAECLQVGPSVFIFPPKPKDVLMISRTPTVTCVVVDVGHDFPDVQFNWYVDGVETHTATTEPKQEQFNSTYRVVSVLPIQHKDWLSGKEFKCKVNNKALPAPVERTISKPTGQPREPQVYVLAPHRDELSKNKVSVTCLVKDFYPTDIDIEWKSNGQPEPETKYSTTPAQLDSDGSYFLYSKLTVETNRWQQGTTFTCAVNHEALHNHYTEKSVSKSPGK has what recorded pKd?
Resp: 7.35

Req: Item equine IgG1 D312M (antibody, part only; not given: Variable domains, not shown: another chain or arm of the molecule) constant: ASTTAPKVFALAPGCGTTSDSTVALGCLVSGYFPEPVKVSWNSGSLTSGVHTFPSVLQSSGFYSLSSMVTVPASTWTSETYICNVVHAASNFKVDKRIEPIPDNHQKVCDMSKCPKCPAPELLGGPSVFIFPPNPKDTLMITRTPEVTCVVVDVSQENPDVKFNWYMDGVEVRTATTRPKEEQFNSTYRVVSVLRIQHQMWLSGKEFKCKVNNQALPQPIERTITKTKGRSQEPQVYVLAPHPDELSKSKVSVTCLVKDFYPPEINIEWQSNGQPELETKYSTTQAQQDSDGSYFLYSKLSVDRNRWQQGTTFTCGVMHEALHNHYTQKNVSKNPGK has what recorded pKd?
Resp: 7.63

Req: Item equine IgG4 M428T (antibody, part only; not given: variable domains, not shown: another chain or arm of the molecule) constant: ASTTAPKVFPLASHSAATSGSTVALGCLVSSYFPEPVTVSWNSGALTSGVHTFPSVLQSSGLYSLSSMVTVPASSLKSQTYICNVAHPASSTKVDKKIVIKECNGGCPAECLQVGPSVFIFPPKPKDVLMISRTPTVTCVVVDVGHDFPDVQFNWYVDGVETHTATTEPKQEQFNSTYRVVSVLPIQHKDWLSGKEFKCKVNNKALPAPVERTISKPTGQPREPQVYVLAPHRDELSKNKVSVTCLVKDFYPTDIDIEWKSNGQPEPETKYSTTPAQLDSDGSYFLYSKLTVETNRWQQGTTFTCAVTHEALHNHYTEKSVSKSPGK has what recorded pKd?
Resp: 7.14

Req: Item equine IgG4 N434G (antibody, part only; not given: variable domains, not shown: another chain or arm of the molecule) constant: ASTTAPKVFPLASHSAATSGSTVALGCLVSSYFPEPVTVSWNSGALTSGVHTFPSVLQSSGLYSLSSMVTVPASSLKSQTYICNVAHPASSTKVDKKIVIKECNGGCPAECLQVGPSVFIFPPKPKDVLMISRTPTVTCVVVDVGHDFPDVQFNWYVDGVETHTATTEPKQEQFNSTYRVVSVLPIQHKDWLSGKEFKCKVNNKALPAPVERTISKPTGQPREPQVYVLAPHRDELSKNKVSVTCLVKDFYPTDIDIEWKSNGQPEPETKYSTTPAQLDSDGSYFLYSKLTVETNRWQQGTTFTCAVMHEALHGHYTEKSVSKSPGK has what recorded pKd?
Resp: 7.67
